Attribute: pest or weed control at 125 g/ha
System: lambsquarters
Assay: Test C preemergence
Format: in vivo, Chenopodium album
Conditions: Chenopodium album, pre-emergence; 125 g ai/ha, preemergence; scale 0 (no effect) to 100 (complete control); read-out: Lambsquarters plant response rating

In the examples that follow, each entry is paired with its recorded pest or weed control at 125 g/ha.
// field: pest or weed control at 125 g/ha; key: `FC(F)(F)c1cnn(-c2ccccc2Oc2ncc(Br)cn2)c1` ; value = 65%

pest or weed control at 125 g/ha reading for `N#Cc1cccc(Oc2ncc(Br)cn2)c1-n1cc(C(F)(F)F)cn1` : 100%

The recorded pest or weed control at 125 g/ha for entry `FC(F)(F)c1cn(-c2ccccc2Oc2ncc(Cl)cn2)nn1` equals 98%

Let's switch to this compound now.
Lab note: `Clc1cnc(Oc2ccccc2-n2cc(Br)cn2)nc1` gave pest or weed control at 125 g/ha of 85%

###

Tested on: corn
Experiment: Test C preemergence
Format: in vivo, Zea mays
Conditions: 62 g ai/ha, preemergence; scale 0 (no effect) to 100 (complete control)
# reported Corn plant response rating; entries follow
Just the number, please, no unit attached.

Here is how some molecules turned out for Corn plant response rating.
The reported corn Corn plant response rating of CCOc1cnn(-c2c(C#N)cccc2Oc2ncc(F)cn2)c1 [Compound 89] is 0

The observed Corn plant response rating for Fc1cccc(Oc2ncc(Cl)cn2)c1-n1cc(I)cn1 [Compound 179] when tested with corn stands at 5

Simply: CCCOc1cnn(-c2c(C#N)cccc2Oc2ncc(Cl)cn2)c1 [Compound 150] , corn, Corn plant response rating = 25

N#Cc1cnn(-c2c(C#N)cccc2Oc2ncc(F)cn2)c1 [Compound 111] on corn gives Corn plant response rating = 5

The recorded Corn plant response rating with corn for CCOc1cn(-c2c(Br)cccc2Oc2ncc(Cl)cn2)nn1 [Compound 84] was 0

Let's switch to this molecule now.
Form field, Corn plant response rating with corn, item COc1cnn(-c2c(C#N)cccc2Oc2ncc(Cl)cn2)c1 [Compound 137] : 5

###

System: lambsquarters
Test: Test D postemergence
Format: in vivo, Chenopodium album
Details: Chenopodium album, post-emergence, 31 g ai/ha, scale 0 to 100 (0 no effect, 100 complete control), read-out: Plant response rating, Lambsquarters
measured attribute: pest or weed control at 31 g/ha (%)
Your answer is read as %, so omit the unit and give the number.

For this compound ( `Clc1cnc(Oc2ccccc2-n2cc(Br)cn2)nc1` ), measured pest or weed control at 31 g/ha is 70

Sure, the documented pest or weed control at 31 g/ha for `FC(F)(F)c1cnn(-c2ccccc2Oc2ncc(Br)cn2)c1` is 50

Input `FC(F)(F)COc1cnn(-c2ccccc2Oc2ncc(Cl)cn2)c1` . Output pest or weed control at 31 g/ha: 60

Looking up `N#Cc1cccc(Oc2ncc(Br)cn2)c1-n1cc(C(F)(F)F)cn1` , I found its pest or weed control at 31 g/ha recorded as 90

Entry under test: `Fc1cccc(Oc2ncc(Cl)cn2)c1-n1cc(Br)cn1` . Its pest or weed control at 31 g/ha was 70

---
The compound listed as `FC(F)(F)c1cn(-c2ccccc2Oc2ncc(Cl)cn2)nn1` shows pest or weed control at 31 g/ha equal to 90

###

System: rice
Assay: Test B flooded paddy test
Type: in vivo, Oryza sativa
Conditions: Flood, 250 g ai/ha; 0 to 100 scale where 0 is no effect and 100 is complete control
Items are presented alongside their recorded Plant response rating, Rice.
Output: the number by itself.

Study these solved cases before continuing.
Documented Plant response rating, Rice of FC(F)(F)c1cnn(-c2c(Cl)cccc2Oc2ncc(Cl)cn2)c1 [Compound 167] : 0

Memo: Clc1cnc(Oc2ccccc2-n2cnc(Br)n2)nc1 [Compound 46] , reported Plant response rating, Rice: 0

We next turn to a different compound, shown below.
The measured Plant response rating, Rice associated with FC(F)c1cccc(Oc2ncc(I)cn2)c1-n1cc(Br)cn1 [Compound 173] reads 0
